- studyTarget: Gardos channel of erythrocytes (Homo sapiens, UniProt O15554)
- assayRemarks: cell-based
- conditionSummary: read-out: Gardos Channel % Inhibition
Threshold check on inhibition at 10 µM: at or above 90% gives class 1, strictly below gives class 0.

Check out these entries, answers already filled in.
{"columns": ["molecule", "labelClass"],
 "data": [
  ["N#CC(c1ccccc1)(c1ccccc1)c1ccc([N+](=O)[O-])cc1 [Compound 52]", "class 1"],
  ["Oc1ccc(C(c2ccccc2)c2ccccc2Cl)cc1 (stereo not shown) [Compound 85]", "class 1"],
  ["N#CCC(c1ccccc1)(c1ccccc1)c1ccccc1 [Compound 19]", "class 1"],
  ["OC(c1ccccc1)(c1ccccc1)c1cccc2ccccc12 [Compound 61]", "class 0"],
  ["C#C[Si](c1ccccc1)(c1ccccc1)c1ccccc1 [Compound 44]", "class 0"],
  ["OCCCC[Si](c1ccccc1)(c1ccccc1)c1ccccc1 [Compound 73]", "class 1"]
]}

hey, is inhibition at 10 µM for this one >= 90%? Clc1ccccc1C(c1ccccc1)c1ccccc1 [Compound 17, 2-chlorophenyl-diphenylmethane]
class 1

hey, is inhibition at 10 µM for this one >= 90%? Cc1ccc(C(c2cc(Cl)ccc2N)c2ccccc2Cl)cc1 (stereo not shown) [Compound 86]
class 1

hey, is inhibition at 10 µM for this one >= 90%? c1ccc(C(c2ccccc2)c2ccccc2)cc1 [Compound 3]
class 0
